// reported pKd for each item listed
Target: T1, human Complement Factor D (CFD), purified from human serum (human, UniProt P00746 26-253)
T1 construct: serum purified (CompTech A136); also called serum purified CFD; hCFD-Comptech
T1 sequence (P00746 26-253): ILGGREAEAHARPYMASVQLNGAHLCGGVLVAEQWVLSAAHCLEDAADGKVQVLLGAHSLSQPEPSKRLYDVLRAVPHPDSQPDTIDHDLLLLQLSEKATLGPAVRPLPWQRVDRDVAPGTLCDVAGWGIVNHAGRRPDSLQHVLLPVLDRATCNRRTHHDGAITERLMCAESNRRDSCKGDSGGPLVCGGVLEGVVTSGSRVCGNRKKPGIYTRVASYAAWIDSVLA
Assay: SPR MX96, mAbs amine-coupled, CFD injected
pKd: −log10 of the molar value.

binder	pKd
KCD004 (antibody, V domains shown, also called OG2063) VH: EVQLQQSGAELVRPGSSVKMSCKTSGKTFTSHGINWVKQRPGQGLEWIGYIYIGNGYNEYNEKFKGKATLTSDTSSSTAYMQLSSLTFEDSAIYFCVRKAYGNYGFDDWGQGTTLTVSS VL: DIQMTQSPTSLSASLGESVSLTCRASQEISGYLNWLQQKPDGSIKRLIYAASTLDSGVPKRFSGSRSGSDYSLTISSLESEDFADYYCLQYANYPFTFGSGTKLEVK	9.45
KCD205 (antibody, V domains shown) VH: EVQLQQSGAELVRPGSSVKMSCKTSGNTFTSHGINWVKQRPGQGLEWIGYIYIGNGYNEYNEKFKGKATLTSDTSSSTAYMQLSSLTSEDSAIYFCVRKAYGNYGFDDWGQGTTLTVSS VL: DIQMTQSPSSLSASLGERVSLTCRASQEISGYLSWLQQKPDGTIKRLIYAASTLDSGVPKRFSGSSSGSDYSLTISSLESDDFADYYCLQYASYPFTFGSGTKLEIK	8.53
KCD139 (antibody, V domains shown) VH: EVQLQQSGAELVRPGSSVKMSCKTSGYTFTSYGINWVKQRPGQGLEWIGYIYIANGYTENNEKFKGKAKLTSDISSSTAYMQLSSLTSEDSAIYFCARRFDYAGALDYWGQGTSVTVSS VL: DIVLTQSPASLAVSLGQRATISCRASESVDSYGNSFMHWYQQKPGQPPKLLIHRASNLESGIPARFSGSGSRTDFTLTINPVEADDVAIYYCQQTNDDPYTFGGGTNLEIK	8.28
